Tested on: 171881-019-R-J1-PDC complex spheroid growth, % test/control;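 note: spheroids exposed to compounds for 7 days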
Protocol notes: Anticancer human tumor 171881-019-R-J1-PDC patient-derived invasive breast carcinoma cell line growth inhibition [Asc]
Details: second compound 0.03 µM; first compound 3.16 µM; active compounds read low
Endpoint label: viability, T/C

[
  {
    "Compound": "C#Cc1c(F)ccc2cc(O)cc(-c3ncc4c(N5CC6CCC(C5)N6)nc(OCC56CCCN5CC(F)C6)nc4c3F)c12 (centres undefined) + CCN1C(C(=O)NC23CCC(C(=O)O)(CC2)CC3)C(c2cccc(Cl)c2F)C2(C(=O)Nc3cc(Cl)ccc32)C12CCCCC2",
    "viability, T/C": "204%"
  },
  {
    "Compound": "C=CC(=O)N1CCN(c2nc(=O)n(-c3c(C)ccnc3C(C)C)c3nc(-c4c(O)cccc4F)c(F)cc23)C(C)C1 (centres undefined) + CCN1C(C(=O)NC23CCC(C(=O)O)(CC2)CC3)C(c2cccc(Cl)c2F)C2(C(=O)Nc3cc(Cl)ccc32)C12CCCCC2",
    "viability, T/C": "102%"
  },
  {
    "Compound": "C=C(F)C(=O)N1CCN(c2nc(OCC3CCCN3C)nc3c2CCN(c2cccc4cccc(Cl)c24)C3)CC1CC#N (centres undefined) + CCN1C(C(=O)NC23CCC(C(=O)O)(CC2)CC3)C(c2cccc(Cl)c2F)C2(C(=O)Nc3cc(Cl)ccc32)C12CCCCC2",
    "viability, T/C": "122%"
  }
]

Pending compound:
Can you share its viability, T/C? I mean this compound: O=C(c1cc(Cc2n[nH]c(=O)c3ccccc23)ccc1F)N1CCN(C(=O)C2CC2)CC1 + CCN1C(C(=O)NC23CCC(C(=O)O)(CC2)CC3)C(c2cccc(Cl)c2F)C2(C(=O)Nc3cc(Cl)ccc32)C12CCCCC2 94.5%
